biological target: furin, P09958; assay: furin cleavage Z-score vs untreated control; higher = more cleavage, active = 3.5 or more, inactive = 1 or less, 8 variable residues between constant flanks; conditions: 15 min;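 note: purified furin at 1:10 enzyme:substrate in 50 mM HEPES pH 7.5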
Sequence (P09958 whole entry): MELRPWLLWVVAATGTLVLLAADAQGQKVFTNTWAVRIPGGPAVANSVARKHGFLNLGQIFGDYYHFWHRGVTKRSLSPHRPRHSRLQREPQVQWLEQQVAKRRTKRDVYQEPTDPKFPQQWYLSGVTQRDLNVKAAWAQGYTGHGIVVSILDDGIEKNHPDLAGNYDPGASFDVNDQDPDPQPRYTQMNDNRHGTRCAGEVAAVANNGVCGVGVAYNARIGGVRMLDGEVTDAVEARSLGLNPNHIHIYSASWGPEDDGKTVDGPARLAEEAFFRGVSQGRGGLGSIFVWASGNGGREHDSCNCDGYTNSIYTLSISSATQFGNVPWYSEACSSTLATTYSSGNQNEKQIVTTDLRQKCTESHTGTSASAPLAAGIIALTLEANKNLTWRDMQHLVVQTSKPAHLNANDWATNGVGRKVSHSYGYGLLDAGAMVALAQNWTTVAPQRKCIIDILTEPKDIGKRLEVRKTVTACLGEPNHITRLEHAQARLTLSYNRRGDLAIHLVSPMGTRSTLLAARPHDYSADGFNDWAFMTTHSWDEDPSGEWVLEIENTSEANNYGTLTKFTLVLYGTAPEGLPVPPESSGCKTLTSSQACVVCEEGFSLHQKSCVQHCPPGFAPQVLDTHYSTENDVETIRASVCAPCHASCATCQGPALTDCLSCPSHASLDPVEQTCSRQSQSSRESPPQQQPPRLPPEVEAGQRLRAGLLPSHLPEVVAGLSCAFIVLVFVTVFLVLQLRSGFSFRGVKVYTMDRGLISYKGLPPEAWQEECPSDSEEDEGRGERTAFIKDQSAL
This is one part of the list. The hit rate among all sequences tested is not known here.
Kindly state furin cleavage Z-score for each of the entries shown.
Give bare numbers.

A selection of reference data follows.
CAAETHVTGGAGNASASA [HC352] | -0.0263
CAMEECSQPLAGNASASA [HC1759] | 1.8
CALVFFCFAWAGNASASA [HC545] | -0.493
CARQNRSRSIAGNASASA [FS-2362] | 0.141
CAEVPCHRISAGNASASA [HC2384] | 0.399

Can you give me furin cleavage Z-score for all of these, one by one?
1. CAVTPCSGSWAGNASASA [HC1830]
2. CAVEECSQHLAGNASASA [HC1670]
3. CARVTRSLDVAGNASASA [FS-3127]

-0.739
0.997
8.68

Can you give me furin cleavage Z-score for all of these, one by one?
1. CAEKMALYDVAGNASASA [HC1456]
2. CADVCCSMSYAGNASASA [HC1991]
3. CARERRWQDVAGNASASA [FS-1698]

1. -0.51
2. -0.573
3. 0.122
